Consider the following Ki values measured on soluble human BACE1 catalytic domain (Homo sapiens (Human)).
Sequence (P56817 75-416): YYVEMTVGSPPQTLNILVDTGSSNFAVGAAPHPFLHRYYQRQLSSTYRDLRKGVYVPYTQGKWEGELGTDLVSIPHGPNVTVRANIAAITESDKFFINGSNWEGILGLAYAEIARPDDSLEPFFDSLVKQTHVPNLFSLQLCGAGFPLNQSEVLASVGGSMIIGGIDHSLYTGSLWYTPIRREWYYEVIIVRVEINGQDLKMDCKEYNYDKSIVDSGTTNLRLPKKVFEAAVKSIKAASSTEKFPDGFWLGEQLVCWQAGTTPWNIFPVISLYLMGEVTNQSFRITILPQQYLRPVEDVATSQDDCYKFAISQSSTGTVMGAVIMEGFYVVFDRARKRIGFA
measure name: Ki (nM)

[[record]]
compound = "COCc1cc(OC)nc(N2CC3[C@](c4ccccc4F)(C2)NC(=N)N(C)S3(=O)=O)c1 (stereo partly shown)"
target_or_system = "soluble human BACE1 catalytic domain (Homo sapiens (Human))"
value_observed = 7

[[record]]
compound = "COc1nc(N2C[C@@H]3[C@](c4cc(F)c(F)cc4F)(C2)NC(=N)N(C)S3(=O)=O)nc(C)c1F (stereo in doubt)"
target_or_system = "soluble human BACE1 catalytic domain (Homo sapiens (Human))"
value_observed = 32

[[record]]
compound = "COc1nc(N2CC3[C@](c4cc(NC(=O)c5ccc(F)cn5)ccc4F)(C2)NC(=N)N(C)S3(=O)=O)nc(C)c1F (mixture of isomers)"
target_or_system = "soluble human BACE1 catalytic domain (Homo sapiens (Human))"
value_observed = 1.2

[[record]]
compound = "CCOCc1cc(OC)nc(N2CC3C(c4ccccc4)(C2)NC(=N)N(C)S3(=O)=O)c1 (racemic)"
target_or_system = "soluble human BACE1 catalytic domain (Homo sapiens (Human))"
value_observed = 61


* * *

target: purified human autoBACE-2 (Homo sapiens)
Sequence (Q9Y5Z0 63-518 limits assumed): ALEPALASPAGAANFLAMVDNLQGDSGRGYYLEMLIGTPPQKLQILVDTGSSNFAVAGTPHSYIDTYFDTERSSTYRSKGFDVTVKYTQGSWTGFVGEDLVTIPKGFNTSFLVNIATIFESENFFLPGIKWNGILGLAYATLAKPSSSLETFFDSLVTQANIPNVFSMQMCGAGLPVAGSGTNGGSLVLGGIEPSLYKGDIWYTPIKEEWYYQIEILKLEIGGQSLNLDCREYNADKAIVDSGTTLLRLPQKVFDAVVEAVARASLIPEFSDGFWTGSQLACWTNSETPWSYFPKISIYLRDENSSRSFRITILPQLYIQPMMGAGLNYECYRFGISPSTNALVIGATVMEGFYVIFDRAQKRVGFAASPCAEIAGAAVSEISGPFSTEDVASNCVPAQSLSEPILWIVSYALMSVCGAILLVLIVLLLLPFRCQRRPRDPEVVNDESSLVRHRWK
measure name: Ki (nM)

[[record]]
compound = "COc1nc(N2CC3[C@](c4ccc(F)cc4F)(C2)NC(=N)N(C)S3(=O)=O)nc(C)c1F (stereo partly drawn)"
value_observed = 8.5

[[record]]
compound = "COCc1cc(OC)nc(N2C[C@@H]3[C@](c4cc(F)ccc4F)(C2)NC(=N)N(C)S3(=O)=O)c1 (stereo in doubt)"
value_observed = 1.7

[[record]]
compound = "COc1nc(N2C[C@@H]3[C@](c4cc(F)ccc4F)(C2)NC(=N)N(C)S3(=O)=O)nc(C)c1F (stereo in doubt)"
value_observed = 14

[[record]]
compound = "COc1nc(N2C[C@@H]3[C@](c4ccc(F)cc4)(C2)NC(=N)N(C)S3(=O)=O)nc(C)c1F (stereo in doubt)"
value_observed = 14

[[record]]
compound = "CC(=O)N1CC2[C@](c3cc(NC(=O)c4ccc(F)cn4)ccc3F)(C1)NC(=N)N(C)S2(=O)=O (mixture of isomers)"
value_observed = 3.2

[[record]]
compound = "COc1nc(N2C[C@@H]3[C@](c4ccccc4F)(C2)NC(=N)N(C)S3(=O)=O)nc(C)c1F (stereo in doubt)"
value_observed = 5.4

